Molecular target: human V1B receptor (Homo sapiens)
Construct: expressed in transfected cells; host or cells: 1321-N1 cells (membranes)
Sequence (P47901 1-424): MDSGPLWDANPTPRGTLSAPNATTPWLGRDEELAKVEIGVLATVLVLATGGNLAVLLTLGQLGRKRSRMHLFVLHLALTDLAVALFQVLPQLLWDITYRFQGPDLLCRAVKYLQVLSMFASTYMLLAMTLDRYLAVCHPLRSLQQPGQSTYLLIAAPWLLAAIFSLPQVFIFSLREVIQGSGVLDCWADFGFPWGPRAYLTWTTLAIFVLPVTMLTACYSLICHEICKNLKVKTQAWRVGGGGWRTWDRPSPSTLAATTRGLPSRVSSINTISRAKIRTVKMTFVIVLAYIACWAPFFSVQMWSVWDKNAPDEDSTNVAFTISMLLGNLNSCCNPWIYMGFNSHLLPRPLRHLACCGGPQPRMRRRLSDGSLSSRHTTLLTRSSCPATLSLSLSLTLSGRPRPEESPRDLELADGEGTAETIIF
Test: In vitro [3H]AVP binding assay, membranes of 1321-N1 cells expressing human V1B receptor
Conditions: 1321-N1 cell membranes, read-out: EC50 of RO model (Ki value for human V1B receptor binding inhibition)
measured_metric: pKi
The scale used: pKi is minus the common logarithm of the concentration in molar units.

So for CC(C)NC(=O)Cn1c(-c2cccc(Cl)c2)nn(-c2ccc(CCN3CCOCC3)cc2)c1=O [THY1773] , the logged pKi turned out to be 8.45
